test: yeast display, Sf9 membrane polyspecificity reagent, FACS + sequencing; frameworks hold sequencing errors
measuredAttribute: polyreactivity (PSR sort gate)

Below: 4 sequences and their reported polyreactivity (PSR sort gate).
QVQLVESGGGLVQAGGSLRLSCAASGFTFPFYTMGWYRQAPGKERELVAAISRGGSTNYADSVKGRFTISRDNAKNTVYLQMNSLKPEDTAVSYCNKRYYRDLIGYYWGQGTQVTVSS = high polyreactivity
QVQLVESGGGLVQAGGSLRLSCAASGSTFTFNAMGWYRQAPGKERELVAAITSRGGSTYYADSVKGRFTISRDNAKNTVYLQMNSLKPEDTAVYYCAATLRGQKTRREYWGQGTQVTVSS = high polyreactivity
QVQLVESGGGLVQAGGSLRLSCAASGRIFIYNAMGWYCQAPGKERELVAAINRSGVSTHYADSVKGRFTISRDNAKNTVYLQMNSLKPEDTAVYYCARTDYGARSYDYWGQGTQVTVSS = low polyreactivity
QVHLVESGGGLVQAGGSLRLSCAASGFTFESYAMGWYRQAPGKERELVAAISDGGGDTYYADSVKGRFTISRDNAKNTVYLQMNSLKQEDTAVYYCAAEWDGNWYRGAGGYDYWGQGTQVTVSS = low polyreactivity

// moving on: another record for polyreactivity (PSR sort gate)
Prompt: // fetch polyreactivity (PSR sort gate) given entry `QVQLVESGGGLVQAGGSLRLSCAASGRIFTSYTMGWYRQAPGKERELVAAIDWSGGTTYYADSVKGRFTISRDNAKNTVYLQMNSLKPEDTAVYYCAALYVKVGYYTYEYWGQGTQVTVSS`
Completion: low polyreactivity

* * *

test: yeast display, Sf9 membrane polyspecificity reagent, FACS + sequencing; frameworks hold sequencing errors
measuredAttribute: polyreactivity (PSR sort gate)

QVKLVESAGGLVQAGGSLRLSCAASGSIFPYNVMGWYRQAPGKERELVAAITRRGGSTYYADSVKGRFTISRDNAKNTVYLQMNSLKPEDSAVYYCAAVPYPRGIGYDYWGQGTQVTVSS = high polyreactivity
QVEIVESGGGLVQAGGSLRLSCAASGSIFRWNAMGWYRQAPGKERELVAAISKRGTNTYYADSVKCRFTISRDNAKNTVYLQMNSLKPEDTAVYYCNAQGHRQNGLGDYWGQGTQVTVSS = high polyreactivity
QVQLVDSGGGLVQAGGSLRLSCAASGSTFYYYAMGWYRQAPGKERELVAAITYSGGSTTYADSVKGRFTFSRDNAKNTVYLQMNSLKPEDTAVYYCAAYVYRYHRVAYEYWGQGTQVTVSS = high polyreactivity
QVQLVESGGGLVEAGGSLRLSCAASGSIFARYAMGWTRQAPGKERELVAAITSRGGSTYADSVKGRFTISRDNAKNTVFLQMISLIPEDTAVYYCAAATLWYYRYWTSYDYWGQGTQVTVSS = high polyreactivity

* * *

experiment: yeast display, Sf9 membrane polyspecificity reagent, FACS + sequencing; frameworks hold sequencing errors
measuredAttribute: polyreactivity (PSR sort gate)

Consider the worked cases shown below.
QVQLVESGGGLVQAGGSLRLSCAASGRIQYNAMGWYRQAPGKEREFVAAISWSGGTTYYADSVKGRFTISRDNAKNTVYLQMNSLKPEDTAVYYCATPYTHWGQGTQVTVSS = high polyreactivity
QVQLVESGGGLFQAGGSLRLSSAASGRIIRRNAMGWYRQAPGKEWDLDAAITSSGGNTYYADSVKGRFTISRDNAKNTVYLQMNSLKPEDSAVYYCATYPGNWDLDYWGQGTQVTVSS = high polyreactivity
QVQLEESGGGLVLAGGSLRLSCAAAGSTFVTNDMGWYRQAPGKERELGAAISVGGRTSYADSVKGRFTISRDNAKNTVYLQMNSLKPEESAVDYCAAQYSYTYWGQGTQVTVSS = low polyreactivity
PVQLVESGGGLVQAGGRLLLICAASGSIFTPKAMGWYRQAPGKERELVAAITSRGGSTYYADSVKGRFTISRDNAKNTFYLQMNSLKPEDTAVYYCASKPHSSKYDYWGQGTQVTVSS = low polyreactivity

Kindly consider the entry below.
Prompt: Provide only the value of recorded polyreactivity (PSR sort gate) for `QVQLVESAGGLVQAGGSLRLSCAASGSISGYAMGWYRQAPGKQRELVAAISRRGGSTYYADSVKGRFTISRDNEKNTVYLQMNSLKPEDTAVYFCAADPYTRQPNSDRYYWGQGTQVTVSS`
Completion: high polyreactivity
